Tested on: Staphylococcus aureus
Settings: Concentration 20 uM; ASSAY_TEST Inhibition of Bacterial Growth; detection method Absorption (OD600); MEDIA CAMHB; plate type 384well; NBS; CORNING #3640; time 18 hr
Description: Antibacterial activity against Staphylococcus aureus MRSA ATCC 43300 (CO-ADD:GP_020); MIC in CAMBH media, using NBS plates, by OD(600)
Entries with a potency or affinity are not part of this list.
Classify by measured Inhibition: 1 if it is equal to or exceeds 10%, 0 if it is smaller.

{"columns": ["Molecule", "Cat"],
 "data": [
  ["Nc1ccc(S(=O)(=O)c2ccc(N)cc2)cc1", 0]
]}

Incoming: Item CC(C)NCC(O)c1ccc(NS(C)(=O)=O)cc1.Cl (stereo unspecified) [SOTALOL HYDROCHLORIDE] with Inhibition of 10% or above?
Outgoing: 0

Incoming: Here is the next molecule: COc1ccc(CC2c3cc(OC)c(OC)cc3CC[N+]2(C)CCC(=O)OCCCCCOC(=O)CC[N+]2(C)CCc3cc(OC)c(OC)cc3C2Cc2ccc(OC)c(OC)c2)cc1OC.O=S(=O)(O)c1ccccc1 (stereo unspecified)
Outgoing: 0

Incoming: Here is the next molecule: `Cn1cnc([N+](=O)[O-])c1Sc1ncnc2[nH]cnc12`
Outgoing: 1

Incoming: Here is the next molecule: CCCNC(=O)NS(=O)(=O)c1ccc(Cl)cc1 [CHLORPROPAMIDE]
Outgoing: 1

Incoming: Here is the next molecule: CC(C)Cc1ccc(C(C)C(=O)O)cc1 (stereo unspecified)
Outgoing: 0

Incoming: Here is the next molecule: Cc1cccc(Nc2ccncc2S(=O)(=O)NC(=O)NC(C)C)c1 [TORSEMIDE]
Outgoing: 0
